- Assayed system: T1, human gastric inhibitory peptide receptor (GIPR) (human, UniProt P48546 22-466)
- T1 sequence (looked up): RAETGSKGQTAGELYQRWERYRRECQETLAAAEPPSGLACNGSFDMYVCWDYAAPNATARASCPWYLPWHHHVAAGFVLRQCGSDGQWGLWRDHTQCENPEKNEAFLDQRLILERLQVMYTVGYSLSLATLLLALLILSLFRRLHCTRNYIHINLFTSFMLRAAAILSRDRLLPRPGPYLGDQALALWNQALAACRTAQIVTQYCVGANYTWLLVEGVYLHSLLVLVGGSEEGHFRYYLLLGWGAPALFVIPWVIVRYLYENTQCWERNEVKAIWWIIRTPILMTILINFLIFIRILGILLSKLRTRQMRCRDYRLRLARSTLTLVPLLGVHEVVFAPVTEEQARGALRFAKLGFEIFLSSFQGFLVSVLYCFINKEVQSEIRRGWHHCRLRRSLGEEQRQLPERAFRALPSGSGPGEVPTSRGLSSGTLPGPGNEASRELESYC
- Method summary: cell-based or functional assay
Numbered stars: 1 amine (or outer) side, 2 acyl side, 3 side chain; on linkers, the order of the positions; unused ones are H or OH. Square brackets hold non-standard residues; d marks the D form. Side chains are listed from the residue outwards. Ends that are not written are not given here. * marks the point of attachment. C18 diacid = O=C(O)CCCCCCCCCCCCCCCCC(=O)*; αMePhe(2-F) = C[C@](N)(Cc1ccccc1F)C(=O)O; γGlu = O=C(O)[C@H](CCC(=O)[*:2])N[*:1]; αMeF = C[C@](N)(Cc1ccccc1)C(=O)O; AEEA = NCCOCCOCC(=O)O; Aib = CC(C)(N)C(=O)O
Quantity kind: hGIPR cAMP EC50 ratio
Enter a number only.

I have this binder here, Y[Aib]EGT[αMePhe(2-F)]TSDYSIXLDEK([AEEA-AEEA-γGlu-C18 diacid])AQ[Aib]EFI[dE]YLIEGG-NH2 (not fully specified (residue 13); printed as Y-Aib-EGT-αMeF(2F)-TSDYSI-αMeF-LDEK((2-[2-(2-Amino-ethoxy)-ethoxy]-acetyl)2-(γ-Glu)-CO-(CH2)16-CO2H)AQ-Aib-EFI-(D-Glu)-YLIEGG-NH2) [Example 220] , and I need its recorded hGIPR cAMP EC50 ratio.
6.3

Moving on to Y[Aib]EGT[αMeF]TSDASIXLDKKAQ[Aib]AFIEYLIEGGPSSGAPPPS-NH2 (not fully specified (residues 13, 17); printed as Y-Aib-EGT-αMeF-TSDASI-αMeF-LDKK((2-[2-(2-Amino-ethoxy)-ethoxy]-acetyl)2-(γ-Glu)-CO-(CH2)18-CO2H)AQ-Aib-AFIEYLIEGGPSSGAPPPS-NH2) [Example 145]
2.46

Moving on to YXEGTXTSDHSIXLDEKAQXTFIXYLIXGGPSSGAPPPS (Y-Aib-EGT-αMeF(2F)-TSDHSI-αMeF-LDEK((2-[2-(2-Amino-ethoxy)-ethoxy]-acetyl)2-(γ-Glu)-CO-(CH2)18-CO2H)AQ-Aib-TFI-(D-Glu)-YLI-(D-Glu)-GGPSSGAPPPS-NH2) [Example 164]
0.0581
